Just for reference, patent US5677350A is where these values come from.

STUDY SYSTEM: ODC (Rattus norvegicus)
MEASUREMENT CONTEXT: read-out: ODC activity decreased
PROPERTY NAME: inhibition at 15000 µM (%)
Numbers only, in %.

Some compounds with recorded inhibition at 15000 µM:
# COMPOUND, RECORDED NUMBER
measured = [
    ("CCNCCCCNCC [DEP, diethyl putrescine]", 13),
    ("NCCCCN [putrescine, 1,4-diaminobutane]", 57),
]

Q. inhibition at 15000 µM of CNCCCCNC [DMP, dimethyl putrescine] on ODC (Rattus norvegicus)?
A. 33

---

STUDY SYSTEM: ODC (Rattus norvegicus, UniProt P09057)
Sequence (P09057 1-461): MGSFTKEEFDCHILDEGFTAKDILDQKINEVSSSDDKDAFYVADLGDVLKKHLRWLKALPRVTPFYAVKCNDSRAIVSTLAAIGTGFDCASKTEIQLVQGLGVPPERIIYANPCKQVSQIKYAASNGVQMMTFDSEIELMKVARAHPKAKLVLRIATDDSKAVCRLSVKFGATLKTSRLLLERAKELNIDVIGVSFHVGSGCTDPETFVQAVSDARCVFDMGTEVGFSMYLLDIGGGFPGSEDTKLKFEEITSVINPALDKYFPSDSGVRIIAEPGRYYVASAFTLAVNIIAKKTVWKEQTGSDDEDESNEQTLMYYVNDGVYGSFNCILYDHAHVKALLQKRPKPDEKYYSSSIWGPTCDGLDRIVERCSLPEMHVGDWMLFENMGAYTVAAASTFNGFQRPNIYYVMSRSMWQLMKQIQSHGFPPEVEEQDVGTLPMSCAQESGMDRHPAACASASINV
MEASUREMENT CONTEXT: read-out: ODC activity decreased
PROPERTY NAME: inhibition at 15000 µM

# ENTRY SMILES, inhibition at 15000 µM
records = [
    ("c1ccc(CNCCCCCNCc2ccccc2)cc1", "< 10%"),
    ("c1ccc(CNCCCCNCc2ccccc2)cc1", "< 10%"),
]

Now, please, on to the next compound.
Q. Kindly state the measured inhibition at 15000 µM obtained for c1ccc(CNCCCNCc2ccccc2)cc1 with ODC (Rattus norvegicus, UniProt P09057).
A. < 10%
